src = BigSolDB 2.1

# assaySetup: in 2-methoxyethanol, 313.15 K

- molecule: "COC(=O)Nc1nc2ccc(S(=O)c3ccccc3)cc2[nH]1 (stereo unspecified)"
  solubility (mole fraction): 0.00173

====

# assaySetup: in 2-methoxyethanol, 283.15 K

- compound: "COC(=O)Nc1nc2ccc(S(=O)c3ccccc3)cc2[nH]1 (stereo unspecified)"
  solubility (mole fraction): 0.000777

====

# assaySetup: in 2-methoxyethanol, 323.15 K
assayReadout: solubility (mole fraction)

- compound: "COC(=O)Nc1nc2ccc(S(=O)c3ccccc3)cc2[nH]1 (stereo unspecified)"
  obsValue: 0.00215

====

# assaySetup: in 2-methoxyethanol, 298.15 K

- molecule: "COC(=O)Nc1nc2ccc(S(=O)c3ccccc3)cc2[nH]1 (stereo unspecified)"
  solubility (mole fraction): 0.00118
